These data points were gathered from PubChem BioAssay AID485313.

Assay: qHTS Assay for NPC1 Promoter Activators; note: nearly all actives have a fitted effect of over 60% in size;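 for activation: reporter is driven by a mutant NPC1 promoter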
Details: Huh7 NPC1 promoter luciferase reporter, 24 h; series mostly up to 9.22 µM
Out of some 320,000 compounds screened, about 7,600 (2.4%) were called active. Not shown: some 3% with an inconclusive outcome. Calls come from the whole dose curve; as a rule, active = well fitted activation curve with a large enough effect; inconclusive = small, poorly fitted or top-dose-only effect; inactive = no such curve, though single readings can be large or run the other way. The list comes from a sample in which actives are over-represented; it also holds close analogues and randomly drawn compounds.
In this exercise, the only acceptable responses are active, inactive

Could you please tell me the result logged for CN(C)C(=O)c1ccc(NC(=O)COC(=O)c2cc3c(s2)CCCCC3)cc1 in this assay?
inactive

Returns: the outcome recorded for COc1ccc(-c2nnc3ccc(SCc4ccccc4)nn23)cc1 in this assay.
inactive

Status in this test for CC1CCCC(C)N1C(=O)CSc1nnnn1C1CCCC1 (configuration not stated) ?
inactive

Could you please tell me the result logged for COC(=O)CSc1nc(C)c2ccc(OC)cc2n1 in this assay?
inactive

Which outcome did this test record for the molecule CC(=O)Nc1ccc(NC(=O)CSc2nnnn2C2CCCCC2)cc1 ?
inactive

How was CCN(CC(=O)Nc1ccccc1C(=O)NC1CC1)Cc1cccs1 classified in this test?
inactive

Dear all, I need the recorded test outcome for O=C(CSC(=S)N1CCOCC1)c1cc(Br)cc(Br)c1O , thank you.
inactive

What did this assay record as the result for O=C(Nc1ccc(F)cc1)c1cc2c(s1)CCCC2 ?
active

For COc1ccc2nc(SCc3ccccc3)nc(C)c2c1 , which call appears in the assay record?
active

Hi team, can someone confirm the assay call for CC(=O)c1ccc(NC(=O)CSC(=S)N2CCCC2)cc1 ?
inactive

Assay result, entry O=C(NNC(=O)c1cc2c(s1)CCCC2)c1ccccc1 — outcome?
inactive

// param item: Cc1ccn(-c2cccc(-n3ccc(C)n3)n2)n1 ; yields the recorded call
active

----------
Experiment: qHTS Assay for NPC1 Promoter Activators; note: nearly all actives have a fitted effect of over 60% in size;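 for activation: reporter is driven by a mutant NPC1 promoter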
Conditions: Huh7 NPC1 promoter luciferase reporter, 24 h; series mostly up to 9.22 µM
About 7,600 (2.4%) of roughly 320,000 compounds were called active. Inconclusive results (about 3%) are left out. Calls come from the whole dose curve; as a rule, active = well fitted activation curve with a large enough effect; inconclusive = small, poorly fitted or top-dose-only effect; inactive = no such curve, though single readings can be large or run the other way. For the sample, actives were picked, then their nearest neighbours and some compounds at random.
Hi! Could you answer with just one of these? active, inactive

Which outcome did this test record for the molecule C/C(=N\NC(=S)Nc1ccc(C)cc1)c1cc2ccccc2o1 ?
inactive

What call does the record list for CC(C)CCNC(=O)c1ccc2c(Cl)c3c(nc2c1)CCC3 ?
active

Test call for this molecule, please: CC1CCCN(c2ccc(C(=O)NCCc3ccccc3)cn2)C1 (configuration not stated)
active

Per the assay record, what outcome was assigned to CCOC(=O)C1CCN(C(=O)c2cccc(S(=O)(=O)N(CC)c3ccccc3)c2)CC1 ?
inactive

Call for entry COc1cccc(NC(=O)CN(C)C(=O)c2cc(C3CC3)nn2-c2ccccc2)c1 :
inactive

Test call for this molecule, please: COC(=O)C1=CO[C@@H](O[C@@H]2O[C@H](CO)[C@@H](O)[C@H](O)[C@H]2O)C2C1C[C@H](O)[C@@H]2C (some centres not stated)
inactive

What did the test return for Cc1[nH][nH]c(=O)c1N=Nc1ccccc1 ?
inactive

What did this assay record as the result for Cc1c(NS(=O)(=O)c2cc(C(=O)NCCc3ccc(F)cc3)cc(Cl)c2Cl)c(=O)n(-c2ccccc2)n1C ?
inactive

Give the logged outcome of this assay for the following molecule: COc1ccccc1CNC(=O)COC(=O)c1sc(C)nc1C
inactive

What was the test verdict on Cc1cc(C(=O)NNC(=S)Nc2ccccc2C)cs1 ?
active

// param item: CC(OC(=O)/C=C/c1ccccc1)C(=O)Nc1ccc(C(N)=O)cc1 (configuration not stated) ; yields the recorded call
inactive

# outcome recorded in this test, key = Cc1cc(C)c2nc(NC(=O)C3CCCO3)sc2c1 (configuration not stated)
active

Write down the call the test reported for this molecule. Item: COCC1CCCN(Cc2nc(-c3ccc4c(c3)OCO4)no2)C1 (configuration not stated)
inactive

What did the test return for Cc1c(/C=N\NC(=O)c2cc3ccccc3o2)c2ccccc2n1C ?
inactive

Per the assay record, what outcome was assigned to O=C(O)c1[nH]c2ccccc2c1C(c1cccc(O)c1)c1c(C(=O)O)[nH]c2ccccc12 ?
inactive

Identify the outcome logged in this assay for the molecule shown: Cc1cc([N+](=O)[O-])ccc1NC(=O)C1CCCO1 (configuration not stated)
inactive

How was Nc1ccc(Nc2cc(O)c3ncccc3c2)cc1 classified in this test?
inactive

I'd appreciate the recorded outcome for O=C(NCCc1ccccc1)c1ccc2c(c1)N(Cc1ccccc1)CCS2 from this test.
inactive

Each molecule tested received a call. Report the one for O=C(CN1CCN(S(=O)(=O)/C=C/c2ccccc2)CC1)Nc1ccc(N2CCOCC2)cc1 .
inactive

Hi team, can someone confirm the assay call for O=C(/C=C/c1ccc(N2CCOCC2)cc1)c1ccccc1 ?
active

Hi team, can someone confirm the assay call for O=C(O)c1ccc2c(c1)C(=O)N(c1ccc(/C=C/C(=O)c3ccccc3)cc1)C2=O ?
inactive

Record lookup: outcome of this test for Cc1ccc(C)c(C(C)NC(=O)C2CCCO2)c1 (configuration not stated) ?
inactive
